Below: a set of entries, each annotated with reported Inf. D: Candida parapsilosis B66126, pIC50.
- System: Candida parapsilosis
- procedure_text: Antifungal activity in vitro, resazurin growth inhibition: Candida parapsilosis (B66126)
- Assay type: cell-based
measured_metric: Inf. D: Candida parapsilosis B66126, pIC50

INSERT INTO measurements (compound, result) VALUES
  ('CCc1nc(C2=NCc3c(Cl)cccc3-n3cccc32)cs1 [Compound 64]', '<4.19'),
  ('CC(=O)c1ccc(C2=NCc3c(F)cccc3-n3cccc32)cn1 [Compound 93]', '<4.19'),
  ('Clc1cccc2c1CN=C(c1ccc3nc[nH]c3c1)c1cccn1-2 [Compound 205]', '<4'),
  ('Clc1ccc2c(c1)-n1cccc1C(c1cc3ccccc3s1)=NC2 [Compound 166]', '<4.19'),
  ('Cc1nc(Cl)cc2cc(C3=NCc4c(Cl)cccc4-n4cccc43)oc12 [Compound 160]', '<4.49'),
  ('Clc1ccc2c(c1)-n1cccc1C(c1cc3ccccc3o1)=NC2 [Compound 119]', 5.61),
  ('CCc1cnc(C2=NCc3c(Cl)cccc3-n3cccc32)s1 [Compound 66]', '<4.19'),
  ('Clc1cc2oc(C3=NCc4c(Cl)cccc4-n4cccc43)cc2cn1 [Compound 159]', '<4.49'),
  ('Cn1nnc2ccc(C3=NCc4c(Cl)cc(Cl)cc4-n4cccc43)cc21 [Compound 111]', '<4.19'),
  ('CC(F)(F)c1ccc(C2=NCc3c(Cl)cc(F)cc3-n3cccc32)cn1 [Compound 85]', 5.61),
  ('Cc1ccc2cc(C3NCc4c(Cl)cc(Cl)cc4-n4cccc43)oc2c1.Cl (racemic) [Compound 41]', '<4.19'),
  ('Clc1cc(Cl)c2c(c1)-n1cccc1C(c1ccc3ncsc3c1)=NC2 [Compound 187]', 4.50),
  ('Cc1cccc2c1CN=C(c1cnc(C(F)(F)F)nc1)c1cccn1-2 [Compound 103]', '<4.19'),
  ('Fc1cccc2cc(C3=NCc4c(Cl)cc(Cl)cc4-n4cccc43)sc12 [Compound 171]', '<4.19'),
  ('COc1cccc2cc(C3=NCc4c(Cl)cccc4-n4cccc43)oc12 [Compound 141]', '<4.19'),
  ('FC(F)(F)c1nc2cc(C3=NCc4c(Cl)cccc4-n4cccc43)ccc2s1 [Compound 193]', '<4.19'),
  ('CC(=O)c1ccc(C2=NCc3c(Cl)cccc3-n3cccc32)cn1 [Compound 92]', '<4.19'),
  ('Clc1cccc2c1CN=C(c1cc3ccccc3o1)c1cccn1-2 [Compound 118]', 5.70);
